Test system: LK-2
ASSAY OVERVIEW: relative viability (nuclei count vs DMSO), 5 days (fraction); higher = more cells survive
SETTINGS: first compound 0.06325 µM
We begin with a simple list: items and their reported relative viability.
Simply state the number, no unit and no words.

INSERT INTO results (compound, measured_metric, measurement) VALUES
  ('CCNC(=O)c1noc(-c2cc(C(C)C)c(O)cc2O)c1-c1ccc(CN2CCOCC2)cc1 [Luminespib] + C[C@]1(O)C[C@@H](c2nc(-c3ccc4ccc(-c5ccccc5)nc4c3)c3c(N)nccn32)C1 [Linsitinib] (partner 1 µM)', 'relative viability', 0.301);

// lookup relative viability for CCNC(=O)c1noc(-c2cc(C(C)C)c(O)cc2O)c1-c1ccc(CN2CCOCC2)cc1 [Luminespib] + N=C(N)NC(=N)NCCc1ccccc1 [Phenformin] (partner 250 µM)
0.0992

Quick one: CCNC(=O)c1noc(-c2cc(C(C)C)c(O)cc2O)c1-c1ccc(CN2CCOCC2)cc1 [Luminespib] + Cc1nc(NC(=O)N2CCC[C@H]2C(N)=O)sc1-c1ccnc(C(C)(C)C(F)(F)F)c1 [Alpelisib] (partner 2 µM)
0.71

Quick one: CCNC(=O)c1noc(-c2cc(C(C)C)c(O)cc2O)c1-c1ccc(CN2CCOCC2)cc1 [Luminespib] + COc1cccc2cc(-c3nc([C@H]4CC[C@H](C(=O)O)CC4)n4ncnc(N)c34)[nH]c12 [OSI-027] (partner 0.5 µM)
0.12
